- MEASUREMENT_DESCRIPTION: Cell viability test (CellTiter-Fluor) in HCV 1b replicon cells
- Format: cell-based
- EXPERIMENTAL_CONDITIONS: human; HCV 1b replicon Huh7 cells, 3 days culture; read-out: CC50 (half cytotoxic concentration)
QUANTITY_MEASURED: CC50 at 3 days

Ask: Assign CC50 at 3 days to the following record: "COC(=O)N[C@H](C(=O)N1[C@@H]2CC[C@@H](C2)[C@H]1c1ncc(-c2ccc3c(c2)C(F)(F)C(F)(F)c2cc(-c4cnc([C@@H]5[C@H]6CC[C@H](C6)N5C(=O)[C@@H](NC(=O)OC)[C@@H](C)O)[nH]4)ccc2-3)[nH]1)[C@@H](C)O"
Reply: > 10 nM

Others:
Ask: Please report the measured CC50 at 3 days for "COC(=O)N[C@H](C(=O)N1[C@@H]2CC[C@@H](C2)[C@H]1c1ncc(-c2ccc3c(c2)C(F)(F)C(F)(F)c2cc(-c4cnc([C@@H]5[C@H]6CC[C@H](C6)N5C(=O)[C@@H](NC(=O)OC)C(C)C)[nH]4)ccc2-3)[nH]1)C(C)C"
Reply: > 10 nM

---

- Test system: HCV genotype 1a replicon
- MEASUREMENT_DESCRIPTION: Anti-HCV-1a replicon activity (luciferase, Bright-Glo)
- Format: cell-based
- EXPERIMENTAL_CONDITIONS: Hepatitis C virus, Huh-7, 72 h, read-out: EC50 against HCV-1a replicon
QUANTITY_MEASURED: EC50

Ask: Consider the compound "COC(=O)N[C@H](C(=O)N1CCC[C@H]1c1ncc(-c2ccc3c(c2)C(F)(F)C(F)(F)c2cc(-c4cnc([C@@H]5CCCN5C(=O)[C@@H](NC(=O)OC)C(C)C)[nH]4)ccc2-3)[nH]1)C(C)C" and give its recorded EC50.
Reply: 190 pM

Ask: Indicate its recorded EC50; the compound in question is "COC(=O)N[C@H](C(=O)N1CC2(CC2)C[C@H]1c1nc(-c2ccc3c(c2)C(F)(F)C(F)(F)c2cc(-c4ccc5nc([C@@H]6CCCN6C(=O)[C@@H](NC(=O)OC)C(C)C)[nH]c5c4)ccc2-3)c[nH]1)C(C)C"
Reply: 61 pM

Ask: Supply EC50 value. Item: "COC(=O)N[C@H](C(=O)N1CC2(C[C@H]1c1ncc(-c3ccc4c(c3)C(F)(F)C(F)(F)c3cc(-c5cnc([C@@H]6CC7(CN6C(=O)[C@@H](NC(=O)OC)C(C)C)OCCO7)[nH]5)ccc3-4)[nH]1)OCCO2)C(C)C"
Reply: 175 pM

Next:
Ask: Answer with the recorded EC50 of "COC(=O)N[C@H](C(=O)N1CCC[C@H]1c1ncc(-c2ccc3c(c2)C(F)(F)C(F)(F)c2cc(-c4cnc([C@@H]5CC6(CN5C(=O)[C@@H](NC(=O)OC)C(C)C)OCCO6)[nH]4)ccc2-3)[nH]1)C(C)C" only.
Reply: 150 pM

Ask: Return EC50 (reported value) for this compound: "COC(=O)N[C@H](C(=O)N1CC2(C[C@H]1c1ncc(-c3ccc4c(c3)C(F)(F)C(F)(F)c3cc(-c5ccc6nc([C@@H]7CCCN7C(=O)[C@@H](NC(=O)OC)C(C)C)[nH]c6c5)ccc3-4)[nH]1)OCCO2)C(C)C"
Reply: 79 pM

---

- MEASUREMENT_DESCRIPTION: Cell viability test (CellTiter-Fluor) in HCV 1b replicon cells
- Type: cell-based
- EXPERIMENTAL_CONDITIONS: human, Huh7 cells stably transfected with HCV genotype 1b replicon; HCV 1b replicon Huh7 cells, 3 days culture; read-out: CC50 (half cytotoxic concentration)
QUANTITY_MEASURED: CC50 at 3 days

Examples with their reported CC50 at 3 days follow.
Ask: For the molecule COC(=O)N[C@H](C(=O)N1CC2(C[C@H]1c1ncc(-c3ccc4c(c3)C(F)(F)C(F)(F)c3cc(-c5ccc6nc([C@@H]7CCCN7C(=O)[C@@H](NC(=O)OC)C(C)C)[nH]c6c5)ccc3-4)[nH]1)OCCO2)C(C)C [Example 11] , give its reported CC50 at 3 days.
Reply: > 0.01 µM

Ask: Give reported CC50 at 3 days value for COC(=O)N[C@H](C(=O)N1CCC[C@H]1c1ncc(-c2ccc3c(c2)C(F)(F)C(F)(F)c2cc(-c4cnc([C@@H]5CCCN5C(=O)[C@@H](NC(=O)OC)[C@@H](C)OC)[nH]4)ccc2-3)[nH]1)[C@@H](C)OC [Example 13]
Reply: > 0.01 µM

We next turn to a different molecule, shown below.
Ask: In one line, give reported CC50 at 3 days of the entry COC(=O)N[C@H](C(=O)N1[C@@H]2CC[C@@H](C2)[C@H]1c1ncc(-c2ccc3c(c2)C(F)(F)C(F)(F)c2cc(-c4cnc([C@@H]5[C@H]6CC[C@H](C6)N5C(=O)[C@@H](NC(=O)OC)C(C)(C)C)[nH]4)ccc2-3)[nH]1)C(C)(C)C [Example 4] .
Reply: > 0.01 µM

Numbers sourced from patent US9512108B2.
